Tested on: BEN
Assay: relative viability (nuclei count vs DMSO), 5 days (fraction); higher = more cells survive
Conditions: first compound 0.8 µM
Task for the reader: assign each of the following molecules its reported relative viability.
Numbers only.

Below, 3 molecules whose answers are already recorded.
| MOLECULE | relative viability |
| --- | --- |
| CCCCCCCCCCCC1=C(O)C(=O)C=C(O)C1=O [Embelin] + C[C@]1(O)C[C@@H](c2nc(-c3ccc4ccc(-c5ccccc5)nc4c3)c3c(N)nccn32)C1 [Linsitinib] (partner 1 µM) | 1.25 |
| CCCCCCCCCCCC1=C(O)C(=O)C=C(O)C1=O [Embelin] + O=C(c1cc(Cc2n[nH]c(=O)c3ccccc23)ccc1F)N1CCN(C(=O)C2CC2)CC1 [Olaparib] (partner 8 µM) | 1.37 |
| CCCCCCCCCCCC1=C(O)C(=O)C=C(O)C1=O [Embelin] + COc1cc2c(Oc3ccc(NC(=O)C4(C(=O)Nc5ccc(F)cc5)CC4)cc3F)ccnc2cc1OCCCN1CCOCC1 [Foretinib] (partner 0.25 µM) | 0.954 |

Record relative viability for all entries; do not skip any.
1. CCCCCCCCCCCC1=C(O)C(=O)C=C(O)C1=O [Embelin] + NC(=O)Nc1cc(-c2cccc(F)c2)sc1C(=O)N[C@H]1CCCNC1 [AZD7762] (partner 0.2 µM)
2. CCCCCCCCCCCC1=C(O)C(=O)C=C(O)C1=O [Embelin] + Cc1nc(NC(=O)N2CCC[C@H]2C(N)=O)sc1-c1ccnc(C(C)(C)C(F)(F)F)c1 [Alpelisib] (partner 2 µM)

OUTPUT:
1. 0.765
2. 1.31

====

Test system: NCI-H727
Experiment: relative viability (nuclei count vs DMSO), 5 days (fraction); higher = more cells survive
Conditions: first compound 2.53 µM
PROPERTY LABEL: relative viability
Give bare numbers.

| MOLECULE | PROPERTY LABEL | MEASURED NUMBER |
| --- | --- | --- |
| CCCCCCCCCCCC1=C(O)C(=O)C=C(O)C1=O [Embelin] + O=C(CCCCCCC(=O)Nc1ccccc1)NO [Vorinostat] (partner 1 µM) | relative viability | 1.32 |
| CCCCCCCCCCCC1=C(O)C(=O)C=C(O)C1=O [Embelin] + COc1cc2c(Oc3ccc(NC(=O)C4(C(=O)Nc5ccc(F)cc5)CC4)cc3F)ccnc2cc1OCCCN1CCOCC1 [Foretinib] (partner 0.25 µM) | relative viability | 1.11 |
| CCCCCCCCCCCC1=C(O)C(=O)C=C(O)C1=O [Embelin] + Cc1nc(Nc2ncc(C(=O)Nc3c(C)cccc3Cl)s2)cc(N2CCN(CCO)CC2)n1 [Dasatinib] (partner 0.075 µM) | relative viability | 0.492 |

Record relative viability for all entries; do not skip any.
1. CCCCCCCCCCCC1=C(O)C(=O)C=C(O)C1=O [Embelin] + O=C(c1cc(Cc2n[nH]c(=O)c3ccccc23)ccc1F)N1CCN(C(=O)C2CC2)CC1 [Olaparib] (partner 8 µM)
2. CCCCCCCCCCCC1=C(O)C(=O)C=C(O)C1=O [Embelin] + Cc1nc(NC(=O)N2CCC[C@H]2C(N)=O)sc1-c1ccnc(C(C)(C)C(F)(F)F)c1 [Alpelisib] (partner 2 µM)

OUTPUT:
0.777
0.578

====

Tested on: PC-14
Assay: relative viability (nuclei count vs DMSO), 5 days (fraction); higher = more cells survive
Conditions: first compound 0.4 µM
Task for the reader: assign each of the following molecules its reported relative viability.
One number for each entry.

| MOLECULE | STUDY SYSTEM | relative viability |
| --- | --- | --- |
| C[C@@H]1CN(CC(=O)Nc2ccc3c(c2)Cc2cccc(-c4cc(=O)cc(N5CCOCC5)o4)c2S3)C[C@H](C)O1 + O=C(c1cc(Cc2n[nH]c(=O)c3ccccc23)ccc1F)N1CCN(C(=O)C2CC2)CC1 [Olaparib] (partner 8 µM) | PC-14 | 0.205 |
| COc1cc(N2CCC(C(N)=O)CC2)ccc1Nc1nc(N)c(Cl)c(Nc2ccccc2S(=O)(=O)C(C)C)n1 [HG-5-88-01] + C[C@]1(O)C[C@@H](c2nc(-c3ccc4ccc(-c5ccccc5)nc4c3)c3c(N)nccn32)C1 [Linsitinib] (partner 1 µM) | PC-14 | 0.955 |
| C[C@@H]1CN(CC(=O)Nc2ccc3c(c2)Cc2cccc(-c4cc(=O)cc(N5CCOCC5)o4)c2S3)C[C@H](C)O1 + CS(=O)(=O)CCNCc1ccc(-c2ccc3ncnc(Nc4ccc(OCc5cccc(F)c5)c(Cl)c4)c3c2)o1 [Lapatinib] (partner 2 µM) | PC-14 | 0.298 |

INPUT: Entry C[C@@H]1CN(CC(=O)Nc2ccc3c(c2)Cc2cccc(-c4cc(=O)cc(N5CCOCC5)o4)c2S3)C[C@H](C)O1 + CC1(C)CCC(c2ccc(Cl)cc2)=C(CN2CCN(c3ccc(C(=O)NS(=O)(=O)c4ccc(N[C@H](CCN5CCOCC5)CSc5ccccc5)c(S(=O)(=O)C(F)(F)F)c4)cc3)CC2)C1 [Navitoclax] (partner 0.5 µM) : reported relative viability = ?
OUTPUT: 1.01
